- Tested on: SN12C
- test-method-notes: NCI tumour cell line growth inhibition, 48 h
The source made the active and inactive calls. Rule as the data show it: active = GI50 up to about 1.1 µM and inactive = higher.
// one of active, inactive, no free text

Solved cases below.
1) Cc1cnc2c(c1C)C(=O)c1ccccc1C2=O: inactive
2) CC1C2CC(CC2=O)C1(C)C (stereo not drawn): inactive
3) C=C(Br)C(Cl)(CBr)CCC(Br)C(C)(C)Cl (stereo not drawn): inactive
4) N#Cc1ccccc1NC(=O)C(=O)C(C(=O)c1ccccc1F)C1OC(=O)c2ccccc21 (stereo not drawn): inactive
5) O=C(c1ccccc1)C1C(c2ccccc2)N1S(=O)(=O)c1ccccc1 (stereo not drawn): inactive
6) N=C1C=CC(=C(c2ccc(N)cc2)c2ccc(N)cc2)C=C1: active
7) Oc1cn(-c2ccc(Cl)cc2)nc1-c1nnc(Nc2ccccc2)o1: inactive

Here's the next entry for you.
Per the records of this test, what outcome belongs to CC(C)Oc1cccc(N2C(CCc3c[nH]c4ccc(Br)cc34)=NS(=O)(=O)c3cnccc32)c1 ?
inactive

* * *

- Test system: SK-MEL-28
- test-method-notes: NCI tumour cell line growth inhibition, 48 h
Active and inactive are the calls of the source. No stated cut-off is given here; in the data, active = GI50 up to about 1.1 µM and inactive = higher.
Let's look at some compounds and their measured GI50.

These solved cases illustrate the format of a correct answer.
1. O=C(N/N=C\c1ccc([N+](=O)[O-])cc1)c1ccccc1Nc1ccccc1C(=O)N/N=C/c1ccc([N+](=O)[O-])cc1: > 100 µM (inactive)
2. Cc1ccccc1Nc1nc2ccccc2nc1NS(=O)(=O)c1ccccc1: > 100 µM (inactive)
3. Cn1c2c(c3ccccc31)CC(=S)N1CCCC(CC2O)C1 (centres undefined): > 100 µM (inactive)
4. CSc1ccc(C(=O)C(=O)c2ccc(SC)s2)s1: > 10 µM (inactive)
5. COc1cc(C2c3cc4c(cc3[C@@H](Nc3ccc([N+](=O)[O-])cc3)C3COC(=O)[C@H]23)OCO4)cc(OC)c1O (some centres undefined): 3.84 µM (inactive)
6. CCCCC1CC(c2ccc(Cl)cc2)=NO1 (centres undefined): > 100 µM (inactive)
7. CC1=C(C(=O)OCCc2ccc([N+](=O)[O-])cc2)C(c2ccccc2[N+](=O)[O-])C(C(=O)OC(C)C)=C(C)N1 (centres undefined): 7.57 µM (inactive)
8. N#Cc1c(-c2ccccc2)c(C#N)c(=S)n(C2OC(CO)C(O)C(O)C2O)c1N (centres undefined): > 100 µM (inactive)

Check SK-MEL-28 data and give GI50 for COc1ccc(N(C(=O)Nc2ccc(Cl)c(Cl)c2)c2ccccc2)cc1 .
> 10 µM (inactive)

* * *

- System: KM12
- test-method-notes: NCI tumour cell line growth inhibition, 48 h
Active and inactive are the calls of the source. No stated cut-off is given here; in the data, active = GI50 up to about 1.1 µM and inactive = higher.
// one of label 1 = active, label 0 = inactive, no free text

Solved cases below.
1. COc1cccc(Nc2nc(N)nc(N)c2N)c1: label 0
2. CN(C)c1ccc(/C=C2\C[C@H]3[C@@H]4CCc5cc(OCCN6CCCC6)ccc5[C@H]4CC[C@]3(C)[C@H]2O)cc1: label 0
3. O=C(CC(=O)Nc1ccccc1)NNC(Sc1ccccc1)c1cc(/N=N/c2ccc(Br)cc2)ccc1O (stereo unspecified): label 0
4. COC(=O)C1CCC(=O)N1C(c1ccccc1)c1ccc(OC)c(OC)c1 (stereo unspecified): label 0
5. C=CCSSCC=C: label 0

Per the records of this test, what outcome belongs to O=C(O)C(=Cc1ccc(-c2ccccc2)cc1)C(=O)O ?
label 0
